Molecular target: cytosolic aminopeptidase (cAAP) purified from Jurkat cells (Homo sapiens, UniProt P55786)
Construct: The cytosolic aminopeptidase (cAAP) was purified from Jurkat cells; endogenous in cells; host or cells: Jurkat cells (enzyme purified from them)
Sequence (P55786 whole entry): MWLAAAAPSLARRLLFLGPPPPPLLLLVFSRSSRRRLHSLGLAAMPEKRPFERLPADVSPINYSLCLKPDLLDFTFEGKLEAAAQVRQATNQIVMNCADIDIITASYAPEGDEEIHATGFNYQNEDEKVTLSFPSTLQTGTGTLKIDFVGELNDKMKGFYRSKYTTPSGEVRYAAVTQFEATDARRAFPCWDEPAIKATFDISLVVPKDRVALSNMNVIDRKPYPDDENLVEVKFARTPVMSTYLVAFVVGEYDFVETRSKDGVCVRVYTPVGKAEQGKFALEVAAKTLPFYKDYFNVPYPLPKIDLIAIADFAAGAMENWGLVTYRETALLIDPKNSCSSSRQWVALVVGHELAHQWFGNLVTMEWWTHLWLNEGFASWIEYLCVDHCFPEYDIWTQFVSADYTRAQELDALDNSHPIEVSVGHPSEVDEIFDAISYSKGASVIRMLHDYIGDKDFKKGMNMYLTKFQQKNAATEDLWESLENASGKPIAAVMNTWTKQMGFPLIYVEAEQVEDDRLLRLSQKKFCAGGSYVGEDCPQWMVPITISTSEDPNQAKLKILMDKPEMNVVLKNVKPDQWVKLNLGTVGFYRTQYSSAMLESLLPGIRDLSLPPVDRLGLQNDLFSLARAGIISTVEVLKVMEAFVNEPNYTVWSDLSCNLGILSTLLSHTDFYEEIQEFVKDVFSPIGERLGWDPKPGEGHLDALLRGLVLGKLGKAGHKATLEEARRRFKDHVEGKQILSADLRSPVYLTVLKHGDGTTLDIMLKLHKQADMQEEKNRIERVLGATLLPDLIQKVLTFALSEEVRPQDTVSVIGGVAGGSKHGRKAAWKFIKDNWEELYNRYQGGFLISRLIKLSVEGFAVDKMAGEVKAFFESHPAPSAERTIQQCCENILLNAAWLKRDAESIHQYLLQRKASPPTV
Test: Inhibition of enzymatic activity of cytosolic aminopeptidase (cAAP)
Assay type: biochemical
Conditions: highest test item concentration 25 μM
VALUE_KIND: meas. IC50 (cAAP)

>  <COMPOUND>
CC(C)(CNC(=O)CC(Cc1cc(F)ccc1F)NC(=O)OC(C)(C)C)CNC(=O)C(OC(=O)C(C)(C)C)C(COCc1ccccc1)NC(=O)OC(C)(C)C (centres unmarked)

>  <VALUE_KIND>
meas. IC50 (cAAP)

>  <RESULT>
no in- hibition

$$$$
>  <COMPOUND>
CCCCCC(=O)NC(CC(=O)NCC(C)(C)CNC(=O)C(OC(=O)CCCCC)C(COCc1ccccc1)NC(=O)CCCCC)Cc1cc(F)ccc1F (centres unmarked)

>  <VALUE_KIND>
meas. IC50 (cAAP)

>  <RESULT>
no in- hibition

$$$$
>  <COMPOUND>
CC(C)(C)OC(=O)NC(CNS(=O)(=O)CCCNC(=O)C(O)C(Cc1ccccc1)NC(=O)OC(C)(C)C)Cc1cc(F)ccc1F (centres unmarked)

>  <VALUE_KIND>
meas. IC50 (cAAP)

>  <RESULT>
no in- hibition

$$$$
>  <COMPOUND>
CC(C)(CNC(=O)CC(Cc1cc(F)ccc1F)Nc1ccc([N+](=O)[O-])c2nonc12)CNC(=O)C(O)C(COCc1ccccc1)Nc1ccc([N+](=O)[O-])c2nonc12 (centres unmarked)

>  <VALUE_KIND>
meas. IC50 (cAAP)

>  <RESULT>
no in- hibition

$$$$
>  <COMPOUND>
CC(C)(C)OC(=O)NC(CNC(=O)c1cccc(NC(=O)C(O)C(COCc2ccccc2)NC(=O)OC(C)(C)C)c1)Cc1cc(F)ccc1F (centres unmarked)

>  <VALUE_KIND>
meas. IC50 (cAAP)

>  <RESULT>
no in- hibition

$$$$
>  <COMPOUND>
CCCCCCCCCCCCCC(=O)NC(CC(=O)NCC(C)(C)CNC(=O)C(O)C(COCc1ccccc1)NC(=O)CCCCCCCCCCCCC)Cc1cc(F)ccc1F (centres unmarked)

>  <VALUE_KIND>
meas. IC50 (cAAP)

>  <RESULT>
no in- hibition

$$$$

What meas. IC50 (cAAP) value was documented for this compound, CC(C)(C)OC(=O)NC(CCCCNC(=O)c1cccc(NC(=O)C(O)C(Cc2ccccc2)NC(=O)OC(C)(C)C)c1)C(=O)N1CCSC1 (centres unmarked) ?
no in- hibition

What meas. IC50 (cAAP) value was documented for this compound, CC(C)(CNC(=O)CC(Cc1cc(F)ccc1F)NC(=O)C(C)(C)C)CNC(=O)C(O)C(COCc1ccccc1)NC(=O)C(C)(C)C (centres unmarked) ?
no in- hibition

What meas. IC50 (cAAP) value was documented for this compound, CC(C)(CNC(=O)CC(Cc1cc(F)ccc1F)NC(=O)OC(C)(C)C)CNC(=O)C(O)C(COCc1ccccc1)NC(=O)OC(C)(C)C (centres unmarked) [Compound C19.025] ?
no in- hibition

What meas. IC50 (cAAP) value was documented for this compound, CC(C)(CNC(=O)CC(N)Cc1cc(F)ccc1F)CNC(=O)C(O)C(COCc1ccccc1)NC(=O)OC(C)(C)C (centres unmarked) ?
no in- hibition

What meas. IC50 (cAAP) value was documented for this compound, CC(=O)NC(Cc1ccccc1)C(O)C(=O)NCCCS(=O)(=O)NCC(Cc1cc(F)ccc1F)NC(=O)OC(C)(C)C (centres unmarked) ?
no in- hibition

What meas. IC50 (cAAP) value was documented for this compound, CC(C)(C)OC(=O)NC(CCCCNS(=O)(=O)c1cccc(NC(=O)C(O)C(Cc2ccccc2)NC(=O)OC(C)(C)C)c1)C(=O)N1CCSC1 (centres unmarked) ?
no in- hibition

What meas. IC50 (cAAP) value was documented for this compound, CC(C)(CNC(=O)CC(Cc1cc(F)ccc1F)NC(=O)OC(C)(C)C)CNC(=O)C(O)C(COCc1ccccc1)NC(=O)OC(C)(C)C (centres unmarked) [Compound C19.004] ?
no in- hibition

What meas. IC50 (cAAP) value was documented for this compound, CCCC(=O)NC(CC(=O)NCC(C)(C)CNC(=O)C(O)C(COCc1ccccc1)NC(=O)CCC)Cc1cc(F)ccc1F (centres unmarked) ?
no in- hibition
